Molecular target: Leukotriene B4 receptor 1 (Homo sapiens)
Experiment: Antagonistic activity against Leukotriene B4 receptor by using [3H]LTB4 as a radioligand at a concentration of 10e-6 M
Type: functional
Assign a class from recorded inhibition; defined classes: lo (below 20%), mid (20% to below 50%), hi (50% or more)

These solved cases illustrate the format of a correct answer.
Molecule: CCCCCCCCCCOc1ccc(C(=O)c2cccc([N+](=O)[O-])c2)cc1CCC(=O)O
Class: lo
//
Molecule: O=C(O)CCc1cccc(NC(=O)c2cccc(C(=O)O)c2)c1OCCCCCCc1ccccc1
Class: lo
//
Molecule: O=C(O)CCc1cc(C(=O)c2cccc(C(=O)O)c2)ccc1OCCCCCCc1ccccc1
Class: hi
//
Molecule: O=C(O)CCc1cc(S(=O)(=O)c2cccc(C(=O)O)c2)ccc1OCCCCCCc1ccccc1
Class: hi
//
Molecule: CCCCCCCCCCOc1ccc(C(=O)c2ccccc2CC(=O)O)cc1CCC(=O)O
Class: hi

Q: Which band does `CCCCCCCCCCOc1ccc(C(=O)c2cccc(Cc3nnn[nH]3)c2)cc1CCC(=O)O` fall in?
Result: hi

Q: Which band does O=C(O)CCc1cc([S+]([O-])c2cccc(C(=O)O)c2)ccc1OCCCCCCc1ccccc1 (stereo unspecified) fall in?
Result: hi

Q: Which band does `CCCCCCCCCCOc1ccc(C(=O)c2cccc(C(=O)O)c2)cc1CCCC(=O)O` fall in?
Result: hi
